ASSAY: chemical genetic growth profiling, strain panel (AID 1159580);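 further: tested at 20 µM; growth read once vehicle control cultures reached saturation at 30 °C; 1 = growth at the plate median or of vehicle wells; lower values mean less growth of the strain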
RUN CONDITIONS: S. cerevisiae deletion strains, growth OD, locus YBR009C, strain hhf1, stronger effect = lower value
Among all 5,500 compounds or so, about 2,000 (36%) were called active. About 18% were inconclusive and are not listed. The list shows a part of the results.
RECORDED METRIC: normalized growth
// print number alone

MOLECULE	normalized growth
COC(=O)C[C@H]1C(C)(C)[C@@H](OC(C)=O)[C@@H]2CC3C4CC(=O)O[C@@H](c5ccoc5)[C@]4(C)CCC3[C@@]1(C)C2=O (stereo not given in full)	0.988
CC(C)=CCC/C(C)=C/COc1ccc2ccc(=O)oc2c1	0.976
O=C(O)CCCN1C(=O)c2cccc3cccc(c23)C1=O	1.02
O=C1OC(=O)C2C3CCC(O3)C12 (stereo not given)	1
C[C@H]1C(=O)O[C@@H]2CCN3CC=C(COC(=O)[C@](C)(O)[C@]1(C)O)[C@H]23	0.993
Cc1cccc(N(C)C(=S)Oc2ccc3ccccc3c2)c1	1.02

Entry COc1cc(O)c(C(C)=O)c(OC)c1 ; normalized growth = 0.957

Just so you know, measured normalized growth for N#C/C(=C\c1ccc(O)cc1)C(=O)O came out at 1.02

Source of measurements: PubChem BioAssay AID1159580
